All figures here come from patent US8394828B2.

biological target: human VR1 (Homo sapiens); construct: expressed in transfected cells; host or cells: HEK293; assay: Human VR1 functional assay (intracellular Ca++, FLIPR, capsaicin challenge); type: cell-based; details: hVR1, capsaicin challenge, read-out: FLIPR functional assay IC50 hVR1
Sequence (Q8NER1 whole entry): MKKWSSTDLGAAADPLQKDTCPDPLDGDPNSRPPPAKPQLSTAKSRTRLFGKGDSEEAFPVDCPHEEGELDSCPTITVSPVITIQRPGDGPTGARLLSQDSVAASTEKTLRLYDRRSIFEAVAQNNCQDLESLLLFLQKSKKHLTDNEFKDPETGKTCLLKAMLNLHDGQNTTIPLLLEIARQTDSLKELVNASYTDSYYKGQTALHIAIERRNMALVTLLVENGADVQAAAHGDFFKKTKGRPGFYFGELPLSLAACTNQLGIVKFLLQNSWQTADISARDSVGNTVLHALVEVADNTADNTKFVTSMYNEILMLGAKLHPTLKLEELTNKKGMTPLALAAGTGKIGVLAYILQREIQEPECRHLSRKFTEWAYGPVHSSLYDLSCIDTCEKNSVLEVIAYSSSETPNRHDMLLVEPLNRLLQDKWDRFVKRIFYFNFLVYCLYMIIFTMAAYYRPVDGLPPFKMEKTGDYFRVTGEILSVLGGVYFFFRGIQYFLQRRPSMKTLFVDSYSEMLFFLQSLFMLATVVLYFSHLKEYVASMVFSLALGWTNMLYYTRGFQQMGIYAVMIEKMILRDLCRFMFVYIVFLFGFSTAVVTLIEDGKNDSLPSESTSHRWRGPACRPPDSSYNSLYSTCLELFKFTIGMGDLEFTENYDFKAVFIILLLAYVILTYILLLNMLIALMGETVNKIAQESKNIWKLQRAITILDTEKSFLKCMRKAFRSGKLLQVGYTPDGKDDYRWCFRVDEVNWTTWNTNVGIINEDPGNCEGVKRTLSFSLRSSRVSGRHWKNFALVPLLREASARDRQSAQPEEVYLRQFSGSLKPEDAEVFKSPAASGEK
outcome measure: IC50 (nM)
The answer is to be given in nM; state only the numeric part.

**Q:** Query: IC50; subject: `CN(Cc1ccccc1)c1ccc(CCC(=O)Nc2cnc3ccccc3c2)cc1`
**A:** 354

**Q:** And for `O=C(Nc1cnc2ccccc2c1)c1ccc(NC2CCCCC2)nc1` ?
**A:** 990

**Q:** Please answer likewise for `CCCCCCCN(C)c1ccc(C(=O)Nc2cnc3ccccc3c2)cn1`
**A:** 1500

**Q:** Lookup `CN(CC1CCCCC1)c1ccc(C(=O)Nc2cnc3ccccc3c2)cc1`
**A:** 1700

**Q:** Now consider `CN(c1ccc(C(=O)Nc2cnc3ccccc3c2)cc1)C1CCCC1` and answer again.
**A:** 185

**Q:** Record: `O=C(Nc1cnc2ccccc2c1)c1ccc(N2CCCCCCC2)nc1`
**A:** 5160

**Q:** Another molecule to look at: `CN1CCc2cc(C(=O)Nc3cnc4ccccc4c3)ccc21`
**A:** 900

**Q:** What do you get for `CCCN1CCc2cc(CCC(=O)Nc3cnc4ccccc4c3)ccc21` ?
**A:** 1060

**Q:** Moving on to the next molecule: `CCC(C)(C)c1ccc(C=CCC(=O)Nc2cnc3ccccc3c2)cc1`
**A:** 10000

**Q:** What would you report for `CCCCCN1CCCc2cc(C(=O)Nc3cnc4ccccc4c3)ccc21` ?
**A:** 1600

**Q:** Then this molecule: `CN(C(=O)c1ccc(NC2CCCCC2)cc1)c1cnc2ccccc2c1`
**A:** 10000

**Q:** // query: O=C(Nc1cnc2ccccc2c1)c1ccc(N2CC[C@@H]3CCCC[C@@H]3C2)nc1 (relative stereo)
**A:** 420

**Q:** Would you kindly repeat that for `CN(CC1CCCCC1)c1ccc(CCC(=O)Nc2cnc3ccccc3c2)cc1` ?
**A:** 260

**Q:** Note, next up: `O=C(Nc1cnc2ccccc2c1Cl)c1ccc2c(ccn2C2CCCCC2)c1`
**A:** 166

**Q:** Try this molecule too: `O=C(Nc1cnc2ccccc2c1)c1ccc2c(c1)CCCC2`
**A:** 10000

**Q:** And the next one, `CN(C(=O)c1ccc(N(C)C2CCCCC2)cc1)c1cnc2ccccc2c1` ?
**A:** 2000

**Q:** Follow-up item: `CN(Cc1ccccc1)c1ccc(C(=O)Nc2cnc3ccccc3c2)cn1`
**A:** 390

**Q:** Request: `CN(CCc1ccccc1)c1ccc(C(=O)Nc2cnc3ccccc3c2)cc1`
**A:** 1900

**Q:** For `O=C(Nc1cnc2ccccc2c1)c1ccc(N2CCCCC2)nc1` then?
**A:** 4300

**Q:** How about this molecule: CCCCCCCNc1cccc(C(=O)Nc2cnc3ccccc3c2)c1 [3-Heptylamino-N-quinolin-3-yl-benzamide]
**A:** 10000

**Q:** Continue with `O=C(Nc1cnc2ccccc2c1)c1ccc2c(c1)CCN2`
**A:** 10500

**Q:** Could you do the same for `O=C(CCc1ccc(CC2CCCCC2)cc1)Nc1cnc2ccccc2c1` , please?
**A:** 670
